Molecular target: CDK19/CycC (Homo sapiens, UniProt Q9BWU1)
Sequence (Q9BWU1 whole entry): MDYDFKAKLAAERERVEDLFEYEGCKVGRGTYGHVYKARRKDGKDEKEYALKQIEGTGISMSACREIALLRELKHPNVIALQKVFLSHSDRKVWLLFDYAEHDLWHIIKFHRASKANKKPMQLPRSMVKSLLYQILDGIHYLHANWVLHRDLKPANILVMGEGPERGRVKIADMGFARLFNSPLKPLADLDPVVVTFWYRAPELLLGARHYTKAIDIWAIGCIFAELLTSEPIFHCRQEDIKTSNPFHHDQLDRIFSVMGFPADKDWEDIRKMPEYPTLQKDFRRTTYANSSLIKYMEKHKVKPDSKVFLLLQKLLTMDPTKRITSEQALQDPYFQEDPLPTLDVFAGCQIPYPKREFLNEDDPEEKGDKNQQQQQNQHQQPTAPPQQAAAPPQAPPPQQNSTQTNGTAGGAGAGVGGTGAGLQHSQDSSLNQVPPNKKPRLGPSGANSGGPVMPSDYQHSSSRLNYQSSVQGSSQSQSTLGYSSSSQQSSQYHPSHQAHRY
Sequence (P24863 whole entry partner): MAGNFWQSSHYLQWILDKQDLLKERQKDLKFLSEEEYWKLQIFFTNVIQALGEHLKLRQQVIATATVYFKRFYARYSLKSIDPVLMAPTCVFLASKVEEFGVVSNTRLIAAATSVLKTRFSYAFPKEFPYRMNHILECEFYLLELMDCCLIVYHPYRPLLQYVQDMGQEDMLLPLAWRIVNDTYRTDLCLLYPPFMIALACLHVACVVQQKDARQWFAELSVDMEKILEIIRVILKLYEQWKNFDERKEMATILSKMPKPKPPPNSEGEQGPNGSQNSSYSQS
Experiment: LanthaScreen europium kinase binding assay (FRET displacement), CDK19
Details: CDK19/CDK8 selectivity based on IC50 values
Experimental: FRET Displacement Assay to Measure IC50: The CDK19/CDK8 IC50 values were measured to evaluate activity and to determine CDK19/CDK8 selectivity. The IC50 values of the disclosed compounds was measured using a LanthaScreen™ europium kinase binding assay (ThermoFisher), as described herein. […]
The entries below come with measured CDK19 Selectivity values attached.
Respond using a number only.

// CDK19 Selectivity lookup, molecule = CC(C)Cc1ccc(Nc2ncc(Nc3cncnc3)cn2)cc1 [Compound A63] , result: 4.8

// CDK19 Selectivity lookup, molecule = Cc1cnccc1Nc1cnc(Nc2ccc(CC(C)C)cc2)nc1 [Compound A21] , result: 15

***
// CDK19 Selectivity lookup, molecule = CC(C)Cc1ccc(Nc2ncc(Nc3ccnc4ccccc34)cn2)cc1 [Compound A11] , result: 0.9

// CDK19 Selectivity lookup, molecule = Cc1cncc(C)c1Nc1cnc(Nc2ccc(CC(C)C)cc2)nc1 [Compound A66] , result: 1.2

// CDK19 Selectivity lookup, molecule = Cc1cc(C(=O)c2cnc(Nc3ccc(CC(C)C)cc3)nc2)ccn1 [Compound A71] , result: 3

// CDK19 Selectivity lookup, molecule = c1cc(Nc2cnc(Nc3ccc(C4CCCCC4)cc3)nc2)c(OC2CCCC2)cn1 [Compound A1] , result: 1.2

// CDK19 Selectivity lookup, molecule = CC(C)Cc1ccc(Nc2ccc(-c3ccncc3)cn2)cc1 [Compound A80] , result: 3

// CDK19 Selectivity lookup, molecule = Cc1cc(Nc2ncc(Nc3ccncc3)cn2)ccc1F [Compound A41] , result: 1

// CDK19 Selectivity lookup, molecule = CCc1cnccc1Nc1cnc(Nc2ccc(C3CCCCC3)cc2)nc1 [Compound A68] , result: 1

// CDK19 Selectivity lookup, molecule = CCCc1ccc(Nc2ncc(Nc3ccnc4ccccc34)cn2)cc1 [Compound A15] , result: 1.1

###

target: CDK19/CycC (Homo sapiens, UniProt Q9BWU1); experiment: LanthaScreen europium kinase binding assay (FRET displacement), CDK19; conditions: CDK19/CDK8 selectivity based on IC50 values
measurement-name: CDK19 Selectivity

Consider the following illustrative entries.
// CDK19 Selectivity lookup, compound = CC(C)Cc1cccc(Nc2ncc(Nc3ccncc3)cn2)c1 [Compound A28] , result: 1.7

// CDK19 Selectivity lookup, compound = Cc1cnccc1C(=O)c1cnc(Nc2ccc(CC(C)C)cc2)nc1 [Compound A73] , result: ≥6

// CDK19 Selectivity lookup, compound = FC(F)C(F)(F)Oc1ccc(Nc2ncc(Nc3ccncc3OC3CCCC3)cn2)cc1 [Compound A67] , result: 1

***
// CDK19 Selectivity lookup, compound = CC(C)Cc1ccc(Nc2ncc(-c3ccccc3)cn2)cc1 [Compound A102] , result: 1

// CDK19 Selectivity lookup, compound = Cc1cc(Nc2cnc(Nc3ccc(C4CC4)cc3)nc2)ccn1 [Compound A17] , result: 2.8

// CDK19 Selectivity lookup, compound = COc1cc(CC(C)C)ccc1Nc1ncc(C(=O)c2ccncc2)cn1 [Compound A131] , result: 1.8

// CDK19 Selectivity lookup, compound = CC(C)Cc1ccc(Nc2ncc(Nc3ccncc3C(F)(F)F)cn2)cc1 [Compound A154] , result: 1

// CDK19 Selectivity lookup, compound = CC(C)Cc1ccc(Nc2ccc(-c3ccccc3)cn2)cc1 [Compound A76] , result: 3

// CDK19 Selectivity lookup, compound = CC(C)Cc1ccc(Nc2ccc(C(=O)c3ccncc3)cn2)cc1 [Compound A78] , result: 2.6

// CDK19 Selectivity lookup, compound = CC(C)Cc1ccc(Nc2ncc(C3(c4ccncc4)CC3)cn2)cc1 [Compound A169] , result: 3

// CDK19 Selectivity lookup, compound = COc1cc(CC(C)C)ccc1Nc1ncc(C(=O)c2ccncc2OC2CCCC2)cn1 [Compound A171] , result: 2

###

Target: CDK19/CycC (Homo sapiens, UniProt Q9BWU1)
Assay: LanthaScreen europium kinase binding assay (FRET displacement), CDK19
Settings: CDK19/CDK8 selectivity based on IC50 values
Method: FRET Displacement Assay to Measure IC50: The CDK19/CDK8 IC50 values were measured to evaluate activity and to determine CDK19/CDK8 selectivity. The IC50 values of the disclosed compounds was measured using a LanthaScreen™ europium kinase binding assay (ThermoFisher), as described herein. […]
Decision: CDK19 Selectivity beneath 2 gives YES; CDK19 Selectivity meeting or exceeding 2 gives NO.

Solved cases (6 shown):
Exercise: Given the entry `O=C(c1ccncc1)c1ccc(Nc2ccc(F)cc2)nc1` , would its reported CDK19 Selectivity be below 2?
Solution: NO

Exercise: Given the entry `Cc1cc(Nc2cnc(Nc3ccc(CC(C)C)cc3)nc2)cc(C)n1` , would its reported CDK19 Selectivity be below 2?
Solution: NO

Exercise: Given the entry `CC(C)Cc1ccc(Nc2ncc(Nc3ccncc3NC3CCCC3)cn2)cc1` , would its reported CDK19 Selectivity be below 2?
Solution: YES

Exercise: Given the entry `Cc1nc(Nc2ccc(CC(C)C)cc2)ncc1Nc1ccncc1C(F)(F)F` , would its reported CDK19 Selectivity be below 2?
Solution: YES

Exercise: Given the entry `c1cc(Nc2ncc(Nc3ccncc3)cn2)cc(C2CC2)c1` , would its reported CDK19 Selectivity be below 2?
Solution: YES

Exercise: Given the entry `CC(C)Cc1ccc(Nc2ncc(Nc3ccncc3OC3CCCC3)cn2)cc1` , would its reported CDK19 Selectivity be below 2?
Solution: NO

***
Exercise: Given the entry `c1cc(Nc2cnc(Nc3ccc(C4COC4)cc3)nc2)c(OC2CCCC2)cn1` , would its reported CDK19 Selectivity be below 2?
Solution: YES

Exercise: Given the entry `CCCc1ccc(Nc2ncc(Nc3ccncc3)cn2)cc1` , would its reported CDK19 Selectivity be below 2?
Solution: NO

Exercise: Given the entry `CC(C)Cc1ccc(Nc2ncc(Nc3cccnc3)cn2)cc1` , would its reported CDK19 Selectivity be below 2?
Solution: NO

Exercise: Given the entry `CC(C)Cc1ccc(Nc2ncc(C(=O)Nc3ccncc3)cn2)cc1` , would its reported CDK19 Selectivity be below 2?
Solution: NO

Exercise: Given the entry `Cc1ccc(-c2cnc(Nc3ccc(CC(C)C)cc3)nc2)cc1` , would its reported CDK19 Selectivity be below 2?
Solution: YES

Exercise: Given the entry `COc1cnccc1Nc1cnc(Nc2ccc(CC(C)C)cc2F)nc1` , would its reported CDK19 Selectivity be below 2?
Solution: YES

###

Biological target: CDK19/CycC (Homo sapiens, UniProt Q9BWU1)
Test: LanthaScreen europium kinase binding assay (FRET displacement), CDK19
Conditions: CDK19/CDK8 selectivity based on IC50 values
Protocol: FRET Displacement Assay to Measure IC50: The CDK19/CDK8 IC50 values were measured to evaluate activity and to determine CDK19/CDK8 selectivity. The IC50 values of the disclosed compounds was measured using a LanthaScreen™ europium kinase binding assay (ThermoFisher), as described herein. […]
measurement-name: CDK19 Selectivity
Respond using a number only.

// CDK19 Selectivity lookup, molecule = `CNC(=O)c1cc(Nc2cnc(Nc3ccc(CC(C)C)cc3)nc2)ccn1` , result: 2.4

Now take the following molecule into account.
// CDK19 Selectivity lookup, molecule = `Cc1ccc2nccc(Nc3cnc(Nc4ccc(CC(C)C)cc4)nc3)c2c1` , result: 2.4

###

biological target: CDK19/CycC (Homo sapiens, UniProt Q9BWU1); assay: LanthaScreen europium kinase binding assay (FRET displacement), CDK19; conditions: his-tagged CDK19/CycC 5 nM, tracer 10 nM, 3 h incubation
The entries below come with measured IC50 values attached.

Consider the following illustrative entries.
// IC50 lookup, compound = CC(C)Cc1ccc(Nc2ncc(C(=O)c3ccncc3C3CC3)cn2)cc1 [Compound A72] , result: ≤ 0.0025 µM

// IC50 lookup, compound = CC(C)Cc1ccc(Nc2ncc(Nc3ccncc3Cl)cn2)c(F)c1 [Compound A58] , result: ≤ 0.0025 µM

Now take the following compound into account.
// IC50 lookup, compound = Cc1cc(Nc2cnc(Nc3cccc(CC(C)C)c3)nc2)cc(C)n1 [Compound A30] , result: 10 µM

###

molecular target: CDK19/CycC (Homo sapiens, UniProt Q9BWU1); assay: LanthaScreen europium kinase binding assay (FRET displacement), CDK19; settings: his-tagged CDK19/CycC 5 nM, tracer 10 nM, 3 h incubation
pIC50: −log10 of the molar value.
measurement-name: pIC50

Consider the following illustrative entries.
Known value: CDK19/CycC (Homo sapiens, UniProt Q9BWU1) pIC50 of the compound `CC(C)Cc1ccc(Nc2ncc(Nc3ccncc3C3CC3)cn2)cc1` equals 7.12

Known value: CDK19/CycC (Homo sapiens, UniProt Q9BWU1) pIC50 of the compound `CC(C)Cc1ccc(Nc2ncc(C(=O)c3ccncc3F)cn2)cc1` equals ≥ 8.60

***
Known value: CDK19/CycC (Homo sapiens, UniProt Q9BWU1) pIC50 of the compound `CCc1cnccc1Nc1cnc(Nc2ccc(CC(C)C)cc2)nc1` equals ≥ 8.60
